Overview of recorded IC50 for various compounds
MEASURED_TARGET: Transthyretin (Homo sapiens, UniProt P02766)
ASSAY_TEXT: Displacement of FITC-diclofenac from human plasma derived TTR measured after overnight incubation by fluorescence polarization assay
OBSERVABLE: IC50 (µM)

> print(dat)
                                   compound                           measured.target  observable  qualifier.operator  experimental.value
1  Cc1cc(C(=O)O)nc(N2CCC(COc3ccc(F)cc3C(F)(F)F)C2)n1 (racemic)  Transthyretin (Homo sapiens, UniProt P02766)        IC50                   =                 3.9
2  Cc1cc(C(=O)O)nc(N2CCC(COc3cccc(Cl)c3C(F)(F)F)C2)n1 (racemic)  Transthyretin (Homo sapiens, UniProt P02766)        IC50                   =                 3.9
3  Cc1cc(C(=O)O)nc(N2CCC(COc3cc(C(F)(F)F)cc(C(F)(F)F)c3)C2)n1 (racemic)  Transthyretin (Homo sapiens, UniProt P02766)        IC50                   >                  30
4  COc1ccc(C(F)(F)F)c(OCC2CCN(c3nc(C)cc(C(=O)O)n3)C2)c1 (racemic)  Transthyretin (Homo sapiens, UniProt P02766)        IC50                   >                  30
